Target or system HER2 cytoplasmic domain (Homo sapiens): recorded pIC50 listed per item.
pIC50: −log10 of the molar value.
parameter.measured: pIC50

1) CON=Cc1c(N)ncnc1Oc1ccc(NC(=O)NCCCO)c(Cl)c1 [Cpd 83] : < 5.00
2) CON=Cc1c(N)ncnc1Oc1ccc(NC(=O)Nc2nc(C)c(C)s2)c(Cl)c1 [Cpd 92] : < 6.00
3) CNC(=O)Cc1ccc(Oc2ncnc(N)c2C=NOC)cc1 [Cpd 96] : < 4.00
4) CON=Cc1c(N)ncnc1Oc1ccc2c(c1)cc(C)n2C(=O)NCCO [Cpd 39] : < 5.00
5) CON=Cc1c(N)ncnc1Oc1ccc(NC(=O)Nc2cccnc2)c(Cl)c1 [Cpd 87] : < 6.00

====

Test system: HCT-116 colon carcinoma
experiment: Inhibition of in vitro cell proliferation (HCT116)
Assay type: cell-based, human
condition.summary: Homo sapiens, HCT-116, 14C-thymidine incorporation
// reported IC50 per item
parameter.measured: IC50 (µM)

1) Cc1cc2c(F)c(Oc3ncnc(N)c3C=NOCCN3CCCC3)ccc2[nH]1 : 4.61
2) CON=Cc1c(N)ncnc1Oc1ccc2c(c1)cc(C)n2C(=O)NCCO : 3.43
3) Cc1cc2c(F)c(Oc3ncnc(N)c3C=NOCCCN3CCOCC3)ccc2[nH]1 : 9.24

====

system: RET cytoplasmic domain (Homo sapiens)
Construct: the RET cytoplasmic domain consisting of the last 492 amino acids of the intracellular domain; histidine tag (N)
Sequence (P07949 658-1114 limits assumed): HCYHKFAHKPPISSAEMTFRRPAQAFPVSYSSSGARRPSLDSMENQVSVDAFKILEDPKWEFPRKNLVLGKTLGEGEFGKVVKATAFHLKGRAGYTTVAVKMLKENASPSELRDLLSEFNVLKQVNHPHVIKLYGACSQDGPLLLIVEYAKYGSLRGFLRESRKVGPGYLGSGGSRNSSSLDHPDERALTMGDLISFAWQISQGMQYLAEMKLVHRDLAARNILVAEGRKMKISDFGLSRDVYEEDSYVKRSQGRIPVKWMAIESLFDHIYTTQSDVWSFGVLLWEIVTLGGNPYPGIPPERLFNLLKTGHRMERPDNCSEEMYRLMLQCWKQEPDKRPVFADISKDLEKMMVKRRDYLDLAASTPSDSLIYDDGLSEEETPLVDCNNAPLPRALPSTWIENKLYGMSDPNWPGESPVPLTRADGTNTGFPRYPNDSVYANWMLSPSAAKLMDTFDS
experiment: RET Kinase Screening Assay
Examples of molecules with documented IC50 follow.
parameter.measured: IC50

1. Cc1cc2c(F)c(Oc3ncnc(N)c3C=NOCCCN3CCN(S(C)(=O)=O)CC3)ccc2[nH]1 : 2.77 µM
2. Cc1cc2c(F)c(Oc3ncnc(N)c3C=NOCC3CCCCC3)ccc2[nH]1 : > 100 µM
3. CCON=Cc1c(N)ncnc1Oc1ccc2[nH]c(C)cc2c1F : > 100 µM
4. CON=Cc1c(N)ncnc1Oc1cc2cc[nH]c2cc1F : > 1 µM
5. Cc1cc2c(F)c(Oc3ncnc(N)c3C=NOCCCO)ccc2[nH]1 : > 10 µM
6. CON=Cc1c(N)ncnc1Oc1ccc2c(ccn2C)c1 : > 100 µM
7. Cc1cc2c(F)c(Oc3ncnc(N)c3C=NOCCO)ccc2[nH]1 : > 10 µM
8. Cc1cc2c(F)c(Oc3ncnc(N)c3C=NOCCN3CCCC3)ccc2[nH]1 : > 100 µM
9. CNCCON=Cc1c(N)ncnc1Oc1ccc2[nH]c(C)cc2c1F : > 100 µM
10. Cc1cc2c(F)c(Oc3ncnc(N)c3C=NOCc3ccccc3)ccc2[nH]1 : > 100 µM
11. CC(=O)N1CCN(CCCON=Cc2c(N)ncnc2Oc2ccc3[nH]c(C)cc3c2F)CC1 : 8.32 µM
12. CON=Cc1c(N)ncnc1Oc1ccc2ncccc2c1 : 2.01 µM
13. Cc1cc2c(F)c(Oc3ncnc(N)c3/C=N/O)ccc2[nH]1 : > 10 µM
14. COCCON=Cc1c(N)ncnc1Oc1ccc2[nH]c(C)cc2c1F : > 100 µM
15. CCNC(=O)Nc1ccc(Oc2ncnc(N)c2C=NOC)cc1 : > 10 µM
16. Cc1cc2c(F)c(Oc3ncnc(N)c3C=NOCCCN3CCCC3)ccc2[nH]1 : 8.11 µM
17. Cc1cc2c(F)c(Oc3ncnc(N)c3C=NOCCCN3CCOCC3)ccc2[nH]1 : 3.58 µM
18. CON=Cc1c(NOC)ncnc1Oc1ccc2[nH]ccc2c1 : ~100 µM
19. Cc1cc2c(F)c(Oc3ncnc(N)c3C=NOCCN3CCOCC3)ccc2[nH]1 : > 100 µM
20. CNc1ncnc(Oc2ccc3[nH]ccc3c2)c1C=NOC : > 100 µM
21. C#CCON=Cc1c(N)ncnc1Oc1ccc2[nH]c(C)cc2c1F : ~10 µM
22. CO/N=C/c1c(N)ncnc1Oc1ccc2[nH]ccc2c1 : 2.23 µM
23. CON=Cc1c(N)ncnc1Oc1ccc2[nH]cc(C)c2c1 : > 100 µM
24. CCNC(=O)Nc1ccc(Oc2ncnc(N)c2C=NOC)cc1C : > 10 µM
25. CCCON=Cc1c(N)ncnc1Oc1ccc2[nH]c(C)cc2c1F : ~10 µM
26. CCCCON=Cc1c(N)ncnc1Oc1ccc2[nH]c(C)cc2c1F : > 100 µM
27. CON=Cc1c(N)ncnc1Oc1ccc2c(c1)cc(C)n2C(=O)NCCN(C)C : > 10 µM
28. CON=Cc1c(N)ncnc1Oc1ccc2[nH]ccc2c1F : > 0.1 µM
29. CNC(=O)Nc1ccc(Oc2ncnc(N)c2C=NOC)cc1 : > 10 µM
30. Cc1cc2c(F)c(Oc3ncnc(N)c3C=NOCCN(C)C)ccc2[nH]1 : > 100 µM
31. CNC(=O)n1c(C)cc2cc(Oc3ncnc(N)c3C=NOC)ccc21 : ~10 µM
32. CON=Cc1c(N)ncnc1Oc1ccc2cccnc2c1 : > 10 µM
33. CNC(=O)Nc1ccc(Oc2ncnc(N)c2C=NOC)cc1Cl : ~1 µM

====

system: CDK1:Cyclin-B (Homo sapiens, UniProt P06493)
Construct: purchased New England Biolabs, Beverly, Mass; 6020; host or cells: insect cells
Sequence (P06493 whole entry): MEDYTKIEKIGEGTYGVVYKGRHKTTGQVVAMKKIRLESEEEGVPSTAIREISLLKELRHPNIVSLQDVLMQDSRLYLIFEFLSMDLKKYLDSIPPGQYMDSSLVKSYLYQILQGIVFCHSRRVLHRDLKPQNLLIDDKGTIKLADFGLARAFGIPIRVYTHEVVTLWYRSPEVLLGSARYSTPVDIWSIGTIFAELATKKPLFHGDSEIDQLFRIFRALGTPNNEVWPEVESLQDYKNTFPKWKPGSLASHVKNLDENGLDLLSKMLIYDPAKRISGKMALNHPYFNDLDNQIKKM
Sequence (P14635 whole entry partner): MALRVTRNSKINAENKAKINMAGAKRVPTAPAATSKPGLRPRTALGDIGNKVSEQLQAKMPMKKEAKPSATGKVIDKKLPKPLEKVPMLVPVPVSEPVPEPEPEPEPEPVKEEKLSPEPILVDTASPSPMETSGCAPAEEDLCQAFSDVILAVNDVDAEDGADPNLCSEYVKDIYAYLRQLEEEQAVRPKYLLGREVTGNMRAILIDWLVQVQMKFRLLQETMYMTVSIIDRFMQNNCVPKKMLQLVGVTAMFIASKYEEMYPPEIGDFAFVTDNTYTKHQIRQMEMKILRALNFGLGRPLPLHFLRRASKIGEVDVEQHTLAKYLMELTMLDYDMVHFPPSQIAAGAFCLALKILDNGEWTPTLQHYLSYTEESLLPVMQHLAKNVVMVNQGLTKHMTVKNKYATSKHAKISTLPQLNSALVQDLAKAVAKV
experiment: CDK1 Screening Assay
Type: biochemical
condition.summary: > means no observed 50% inhibition at the indicated test concentration; ~ means approximately 50% inhibition at that concentration
parameter.measured: IC50

1. CON=Cc1c(N)ncnc1Oc1ccc(NC(=O)Nc2ccc(OC)cc2)c(Cl)c1 : > 100 µM

====

Test system: HCT-116 colon carcinoma
experiment: Inhibition of in vitro cell proliferation (HCT116)
Format: cell-based, human
condition.summary: Homo sapiens, HCT-116, 14C-thymidine incorporation
# IC50 values compiled below
parameter.measured: IC50 (µM)

1. CON=Cc1c(N)ncnc1Oc1ccc(NC(=O)Nc2nccs2)c(Cl)c1 : 3.04
2. Cc1cc2c(F)c(Oc3ncnc(N)c3C=NOCCCCO)ccc2[nH]1 : 2.34
3. CCNC(=O)Nc1ccc(Oc2ncnc(N)c2/C=N/OC)cc1Cl : 3.7

====

System: HCT-116 colon carcinoma
experiment: Inhibition of in vitro cell proliferation (HCT116);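 further: cells exposed to compound for 24 h, then 14C-thymidine added for a further 24 h and its uptake into DNA counted by scintillation, DMSO-only wells as control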
Format: cell-based, human
condition.summary: Homo sapiens, HCT-116, 14C-thymidine incorporation
parameter.measured: IC50 (µM)

1. Cc1cc2c(F)c(Oc3ncnc(N)c3C=NOCCO)ccc2[nH]1 : 0.323
2. COCCCON=Cc1c(N)ncnc1Oc1ccc2[nH]c(C)cc2c1F : 0.438
3. CON=Cc1c(N)ncnc1Oc1ccc(NC(=O)OC)c(Cl)c1 : 3.77
4. CON=Cc1c(N)ncnc1Oc1ccc2[nH]ccc2c1F : 0.365
5. CON=Cc1c(N)ncnc1Oc1ccc2[nH]cc(C)c2c1 : 0.385

====

system: murine Aurora-A (Mus musculus)
Construct: replaced with the full length protein encoding the murine Aurora-A; made in house; host or cells: sf9 insect cells
Sequence (P97477 whole entry): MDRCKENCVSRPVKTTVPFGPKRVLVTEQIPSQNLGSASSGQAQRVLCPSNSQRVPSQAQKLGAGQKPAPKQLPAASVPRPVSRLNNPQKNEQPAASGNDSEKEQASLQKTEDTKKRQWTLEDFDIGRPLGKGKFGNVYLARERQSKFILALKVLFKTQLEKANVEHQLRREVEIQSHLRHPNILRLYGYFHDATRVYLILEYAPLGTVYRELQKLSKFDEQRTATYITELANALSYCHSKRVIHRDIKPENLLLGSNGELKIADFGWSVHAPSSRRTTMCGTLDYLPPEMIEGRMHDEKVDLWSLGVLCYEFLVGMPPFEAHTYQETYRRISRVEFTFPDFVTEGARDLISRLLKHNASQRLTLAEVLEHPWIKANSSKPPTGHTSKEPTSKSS
experiment: Aurora-A Screening Assay
Assay type: biochemical
pIC50: −log10 of the molar value.
The entries below come with measured pIC50 values attached.
parameter.measured: pIC50

1) C#CCNC(=O)Nc1ccc(Oc2ncnc(N)c2C=NOC)cc1Cl : < 4.00
2) CON=Cc1c(N)ncnc1Oc1ccc(NC(=O)Nc2cc(C)on2)c(Cl)c1 : < 4.00
3) CCCCON=Cc1c(N)ncnc1Oc1ccc2[nH]c(C)cc2c1F : < 4.00
4) CON=Cc1c(N)ncnc1Oc1ccc(NC(=O)NC2CCCCC2)c(Cl)c1 : < 4.00
5) CO/N=C/c1c(N)ncnc1Oc1ccc2[nH]c(C)cc2c1 : ~4.00
6) CON=Cc1c(N)ncnc1Oc1ccc(NC(=O)Nc2nccs2)c(Cl)c1 : < 5.00
7) C#CCON=Cc1c(N)ncnc1Oc1ccc2[nH]c(C)cc2c1F : < 4.00
8) CNCCON=Cc1c(N)ncnc1Oc1ccc2[nH]c(C)cc2c1F : < 4.00
9) CON=Cc1c(N)ncnc1Oc1ccc(CC(=O)Nc2ccc(C)cc2)cc1 : < 4.00
10) CON=Cc1c(N)ncnc1Oc1cc2cc[nH]c2cc1F : < 5.00
11) Cc1cc2c(F)c(Oc3ncnc(N)c3C=NOCCCN3CCN(S(C)(=O)=O)CC3)ccc2[nH]1 : < 4.00
12) CON=Cc1c(N)ncnc1Oc1ccc(NC(=O)NCCCCN2CCCC2)c(Cl)c1 : < 5.00
13) CON=Cc1c(N)ncnc1Oc1ccc(NC(=O)NCCO)c(Cl)c1 : < 4.00
14) CON=Cc1c(N)ncnc1Oc1ccc2c(c1)OCO2 : < 5.00
15) CON=Cc1c(N)ncnc1Oc1ccc2[nH]cc(C)c2c1 : < 5.00
16) CON=Cc1c(N)ncnc1Oc1ccc(NC(=O)Nc2ccc(F)cc2)c(Br)c1 : < 4.00
17) CON=Cc1c(N)ncnc1Oc1ccc(NC(=O)NC(C)C)c(Cl)c1 : < 5.00
18) CON=Cc1c(N)ncnc1Oc1ccc(F)c(Cl)c1 : < 4.00
19) CON=Cc1c(N)ncnc1Oc1ccc(NC(=O)Nc2cccc(F)c2)c(Cl)c1 : < 4.00
20) CON=Cc1c(N)ncnc1Oc1ccc2[nH]ccc2c1F : < 4.00

Origin of values: patent US8013153B2
